# System: hepatocellular (HePG2) carcinoma cell line
# measurement.protocol: MTT cytotoxicity, HePG-2
# Type: cell-based
# assay.conditions: Homo sapiens, HepG2, 24 h, read-out: IC50 HePG-2
So basically: is IC50 under 40 µM? Then class 1. Not under? Then class 0.

{"molecule.smiles": "O=C(NCCSc1nc2ccccc2c(=O)n1-c1ccccc1)Nc1ccc(Br)cc1", "classification": "class 0"}
{"molecule.smiles": "COc1ccc(CNC(=O)NCCSc2nc3ccccc3c(=O)n2-c2ccccc2)cc1", "classification": "class 1"}
{"molecule.smiles": "COc1ccc(NC(=O)NCCSc2nc3cc(Cl)ccc3c(=O)n2-c2ccccc2)cc1", "classification": "class 1"}
{"molecule.smiles": "O=C(NCCSc1nc2ccccc2c(=O)n1-c1ccccc1)Nc1ccc(C(F)(F)F)cc1", "classification": "class 1"}
{"molecule.smiles": "O=C(NCCSc1nc2cc(Cl)ccc2c(=O)n1-c1ccccc1)NCCc1ccccc1", "classification": "class 0"}
{"molecule.smiles": "COc1ccc(NC(=O)NCCSc2nc3ccccc3c(=O)n2-c2ccccc2)cc1", "classification": "class 0"}
